// provenance: patent US20230310445A1

- measured target: Recombinant human LOXL2 (lysyl oxidase like 2) (Homo sapiens)
- Construct: purchased R&D systems
- Sequence (Q9Y4K0 26-774): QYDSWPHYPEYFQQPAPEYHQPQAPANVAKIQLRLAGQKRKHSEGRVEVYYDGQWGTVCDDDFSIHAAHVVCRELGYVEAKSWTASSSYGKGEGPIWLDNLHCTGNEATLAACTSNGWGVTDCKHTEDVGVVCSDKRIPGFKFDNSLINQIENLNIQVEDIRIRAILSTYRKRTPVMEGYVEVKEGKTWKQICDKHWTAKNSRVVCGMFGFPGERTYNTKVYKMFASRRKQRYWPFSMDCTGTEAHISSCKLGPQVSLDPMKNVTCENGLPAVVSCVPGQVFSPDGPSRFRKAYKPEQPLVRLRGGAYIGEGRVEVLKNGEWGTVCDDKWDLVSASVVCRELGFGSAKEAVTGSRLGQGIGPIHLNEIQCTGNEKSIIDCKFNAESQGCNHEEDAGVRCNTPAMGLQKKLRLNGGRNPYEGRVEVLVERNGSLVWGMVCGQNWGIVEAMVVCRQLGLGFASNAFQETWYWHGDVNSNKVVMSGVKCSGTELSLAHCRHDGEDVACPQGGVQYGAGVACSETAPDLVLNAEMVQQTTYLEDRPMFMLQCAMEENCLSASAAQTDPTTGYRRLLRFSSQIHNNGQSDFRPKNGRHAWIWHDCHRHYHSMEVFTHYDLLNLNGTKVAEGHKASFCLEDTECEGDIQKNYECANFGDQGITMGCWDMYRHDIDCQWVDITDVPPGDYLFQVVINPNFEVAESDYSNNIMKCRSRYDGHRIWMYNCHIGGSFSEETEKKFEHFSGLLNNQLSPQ
- assay protocol: LOXL2 inhibition assay (fluorometric, cadaverine/Amplex Red/HRP)
- Format: biochemical
- study conditions: IC50 class; recombinant human LOXL2, cadaverine substrate; read-out: Activity Range LOXL2
property: IC50

Example entries begin here.
* CS(=O)(=O)N1CCN(C(=O)[C@@H]2C[C@@H](c3ccccc3)CN(S(=O)(=O)c3cccc(CN)n3)C2)CC1 (racemic) [Example 116T, 2,2,2-trifluoroacetate] | 1 to 30 µM
* CS(=O)(=O)N1C[C@H](Oc2cc(CN)ccc2F)C[C@H](c2ccccc2F)C1 (racemic) [Example 71, 2,2,2-trifluoroacetate] | 0.5 to 1 µM

Switching to the query record.
compound CS(=O)(=O)N1CCN(C(=O)[C@H]2C[C@@H](N3CCCCC3)CN(S(=O)(=O)c3cc(CN)ccn3)C2)CC1 (racemic) [Example 149, 2,2,2-trifluoroacetate] , IC50 observed: 0.5 to 1 µM
